test system: HL-60; assay: cells; format: functional, cell-based, Homo sapiens; details: Homo sapiens, HL-60;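 further: growth inhibition of human HL-60 cells, read out with a cell viability assay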
Description: SANGER: Inhibition of human HL-60 cell growth in a cell viability assay.
Quick list: pIC50 per entry.
// pIC50 is dimensionless: -log10 of concentration (M)

[
  {
    "compound": "COc1cc2ncn(-c3cc(OCc4ccccc4C(F)(F)F)c(C(N)=O)s3)c2cc1OC [GW843682X]",
    "pIC50": 7.60
  }
]

Now consider the entry below.
Record summary for `CCN(CC)CCNC(=O)c1c(C)[nH]c(/C=C2\C(=O)Nc3ccc(F)cc32)c1C` : reported pIC50 = 5.38

* * *

test system: ZR-75-30; test: cells; type: functional, cell-based, Homo sapiens; conditions: Homo sapiens, ZR-75-30;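 further: growth inhibition of ZR-75-30 cells, measured with a cell viability readout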
Description: SANGER: Inhibition of human ZR-75-30 cell growth in a cell viability assay.
pIC50: −log10 of the molar value.
metric: pIC50

The cases that follow already have their pIC50 on record.
[
  {
    "compound": "Cn1cnc2c(F)c(Nc3ccc(Br)cc3Cl)c(C(=O)NOCCO)cc21",
    "pIC50": "< 5.40"
  },
  {
    "compound": "CS(=O)(=O)c1ccc(C(=O)Nc2ccc(Cl)c(-c3ccccn3)c2)c(Cl)c1",
    "pIC50": "< 5.00"
  },
  {
    "compound": "CCN(CC)CCCCNc1ncc2cc(-c3cc(OC)cc(OC)c3)c(NC(=O)NC(C)(C)C)nc2n1",
    "pIC50": "< 5.70"
  }
]

Record summary for `CN(C)C(=N)NC(=N)N` : reported pIC50 = 1.83

Record summary for Nc1cccc2c1CN(C1CCC(=O)NC1=O)C2=O (stereo not given) [LENALIDOMIDE] : reported pIC50 = < 5.30

* * *

test system: YKG-1; assay: cells; assay type: functional, cell-based, Homo sapiens; conditions: ykg-1;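 further: cell growth inhibition, read out with a viability assay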
Description: SANGER: Inhibition of human YKG-1 cell growth in a cell viability assay.
metric: IC50 (µM)
Write the number in µM without appending the unit.

Record summary for `BLEOMYCIN` : reported IC50 = 3.26

* * *

system: A 172; assay: cells; type: functional, cell-based, Homo sapiens; conditions: a 172
Description: SANGER: Inhibition of human A172 cell growth in a cell viability assay.
metric: pIC50
// pIC50 is dimensionless: -log10 of concentration (M)

Record summary for `CISPLATIN` : reported pIC50 = 4.10

* * *

Quick list: pIC50 per entry.
test system: HCC1419; assay: cells; assay type: functional, cell-based, Homo sapiens; conditions: hcc1419;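 further: growth inhibition of human HCC1419 cells, read out as cell viability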
Description: SANGER: Inhibition of human HCC1419 cell growth in a cell viability assay.
// pIC50 is dimensionless: -log10 of concentration (M)

Record for `CISPLATIN` under target or system HCC1419: pIC50 reported as 4.53

Record for `BLEOMYCIN` under target or system HCC1419: pIC50 reported as 3.60

* * *

tested on: LoVo; assay: cells; type: functional, cell-based, Homo sapiens; settings: Homo sapiens, LoVo
Description: SANGER: Inhibition of human LoVo cell growth in a cell viability assay.
Where a name gives a salt, the structure may show the parent alone.
Quick list: IC50 per entry.
Write the number in µM without appending the unit.

[
  {
    "molecule": "COC1=CC(c2cc3ccccc3[nH]2)=N/C1=C\\c1[nH]c(C)cc1C [OBATOCLAX MESYLATE]",
    "result": 0.0872
  },
  {
    "molecule": "Cn1cnc2c(F)c(Nc3ccc(Br)cc3Cl)c(C(=O)NOCCO)cc21",
    "result": 1.06
  },
  {
    "molecule": "C=C(c1ccc(C(=O)O)cc1)c1cc2c(cc1C)C(C)(C)CCC2(C)C",
    "result": 5.92
  }
]

Record summary for `Nc1ccn([C@@H]2O[C@H](CO)[C@@H](O)C2(F)F)c(=O)n1` : reported IC50 = 0.00571

Record summary for CC(C)CCN1c2nc(Nc3cc(F)c(O)c(F)c3)ncc2N(C)C(=O)C1C (configuration not stated) : reported IC50 = 1.47

FYI, the data here is from ChEMBL document CHEMBL1201861.
